Overview of recorded pEC50 for various compounds
target: human 5-HT2C(VSV) (Homo sapiens, UniProt P28335, I156V/I160V/N158S); assay: cell-based
Sequence (P28335 33-458 I156V/N158S/I160V limits assumed): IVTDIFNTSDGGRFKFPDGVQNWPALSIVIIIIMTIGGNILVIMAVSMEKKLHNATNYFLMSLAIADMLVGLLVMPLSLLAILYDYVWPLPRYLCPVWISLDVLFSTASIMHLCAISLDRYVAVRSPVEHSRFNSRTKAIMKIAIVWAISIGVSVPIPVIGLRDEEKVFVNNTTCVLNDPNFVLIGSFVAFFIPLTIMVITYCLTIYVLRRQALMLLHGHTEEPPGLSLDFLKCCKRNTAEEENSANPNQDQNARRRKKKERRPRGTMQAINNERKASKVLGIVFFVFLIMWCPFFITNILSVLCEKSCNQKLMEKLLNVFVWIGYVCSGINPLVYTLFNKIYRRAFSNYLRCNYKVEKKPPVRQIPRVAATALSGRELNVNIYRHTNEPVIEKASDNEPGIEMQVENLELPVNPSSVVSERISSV
pEC50: −log10 of the molar value.

Examples with their reported pEC50 follow.
compound | pEC50
COc1ccc(-c2ccsc2)c2c1c(CCN(C)C)cn2C [6-13] | 5.00 to 6.30
CCCn1cc(CCNCc2cccc(C)n2)c2c(O)c(F)ccc21 [17-19] | > 5.00
CNCCc1cn(C)c2ccc(F)c(OCc3ccccc3C(F)(F)F)c12 [33-31] | 6.30 to 9.00
CNCCc1cn(C)c2ccc(F)c(OC(C)c3ccccc3)c12 (centres unmarked) [33-32] | 6.30 to 9.00

Given CCn1cc(CCN2C[C@@H]3C[C@H]2CN3Cc2ccccc2)c2c(O)cc(F)cc21 [31-7] , state its recorded pEC50.
5.00 to 6.30
